inhibition overview
- assayed-target: Ephrin type-A receptor 3 (Homo sapiens);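 further: mean inhibition value reported from the GSK PKIS kinase profiling screen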
- Sequence (whole entry): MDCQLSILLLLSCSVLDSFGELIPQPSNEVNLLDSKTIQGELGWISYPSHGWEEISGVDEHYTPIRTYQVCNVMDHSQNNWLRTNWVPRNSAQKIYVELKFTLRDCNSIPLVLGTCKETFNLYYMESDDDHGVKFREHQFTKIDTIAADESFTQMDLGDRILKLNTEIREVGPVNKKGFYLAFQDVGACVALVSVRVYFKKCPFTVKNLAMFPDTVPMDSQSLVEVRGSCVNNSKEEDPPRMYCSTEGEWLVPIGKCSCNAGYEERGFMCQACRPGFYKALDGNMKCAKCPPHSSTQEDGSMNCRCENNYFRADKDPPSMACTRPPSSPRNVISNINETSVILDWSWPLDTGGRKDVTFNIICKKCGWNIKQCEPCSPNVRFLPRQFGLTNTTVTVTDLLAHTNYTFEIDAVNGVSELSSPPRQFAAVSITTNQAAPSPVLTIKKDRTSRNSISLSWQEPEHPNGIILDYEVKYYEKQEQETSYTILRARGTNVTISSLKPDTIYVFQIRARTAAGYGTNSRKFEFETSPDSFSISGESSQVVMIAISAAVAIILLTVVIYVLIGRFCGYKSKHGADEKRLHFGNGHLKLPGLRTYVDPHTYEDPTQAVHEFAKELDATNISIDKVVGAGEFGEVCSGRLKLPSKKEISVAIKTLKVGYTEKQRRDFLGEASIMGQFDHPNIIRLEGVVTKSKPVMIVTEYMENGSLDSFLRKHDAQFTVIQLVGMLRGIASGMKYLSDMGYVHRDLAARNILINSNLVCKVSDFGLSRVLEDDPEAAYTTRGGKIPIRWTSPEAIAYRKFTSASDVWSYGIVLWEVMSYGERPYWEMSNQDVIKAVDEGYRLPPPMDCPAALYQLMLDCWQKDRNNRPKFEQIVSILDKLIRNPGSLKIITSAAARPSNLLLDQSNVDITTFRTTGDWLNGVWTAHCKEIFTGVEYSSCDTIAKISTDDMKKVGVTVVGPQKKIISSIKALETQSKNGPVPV
- condition-description: at 1 µM
The figure you give is taken to be in %; do not add the unit.

                              line_notation  experimental_value
0  CCN1CCC(C(=O)Nc2n[nH]c3nnc(-c4cccc(F)c4F)cc23)CC1               -0.43
1  O=C(O[C@H]1CN[C@H](C#Cc2cc3ncnc(Nc4ccc(OCc5cccc(F)c5)c(Cl)c4)c3s2)C1)N1CCOCC1                4.01
2  CS(=O)(=O)Nc1ccc(-c2ccc3c(NC(=O)C4CC4)n[nH]c3c2)cc1                 4.1
3  CC1(C)CC(n2cnc(-c3ccc(F)cc3)c2-c2ccnc(N)n2)CC(C)(C)N1               -0.11
4  CS(=O)(=O)CCNCc1ccc(-c2ccc3ncnc(Nc4ccc(OCc5ccccc5)cc4)c3c2)o1                5.62
5  COc1ccc(-c2nn3ncccc3c2-c2ccnc(Nc3ccc(F)c(F)c3)n2)cc1                 6.3

Q. Retrieve inhibition measured for CS(=O)(=O)Nc1ccc(-c2cc(-c3ccccc3)cc(C(N)=O)c2N)cc1 and print it.
A. -0.2

Q. Retrieve inhibition measured for COc1cc(Nc2ncc(-c3ccccc3)o2)cc(OC)c1 and print it.
A. 8.57

Q. Retrieve inhibition measured for O=C(O[C@H]1CN[C@H](C#Cc2cc3ncnc(Nc4ccc5c(ccn5Cc5cc(F)ccc5F)c4)c3s2)C1)N1CCOCC1 and print it.
A. 4.4
